- Tested on: tumour cells (for example commercially available colon carcinoma cell lines)
- assay details: Inhibition of the proliferation/vitality of tumour cells in vitro (Crystal Violet staining)
- Type: cell-based
- experimental context: 48 hours incubation with test substance, serum-containing medium, Crystal Violet absorbance, value given as range
Quick reference: IC50 of the listed items.

{"mol": "c1ccc(Nc2nccc(-c3c[nH]c4ncccc34)n2)cc1", "IC50": "0.05 to 0.5 µM"}
{"mol": "CNc1nccc(-c2c[nH]c3ncccc23)n1", "IC50": "0.5 to 5 µM"}
{"mol": "COCCn1cc(-c2ccnc(Nc3ccccc3)n2)c2cccnc21", "IC50": "5 to 50 µM"}
{"mol": "CNc1nccc(-c2cn(CCOC)c3ncccc23)n1", "IC50": "5 to 50 µM"}
